Test system: lipid peroxides production in rat brain homogenates
Experiment: Inhibitory action on lipid peroxides production in rat brain homogenates
Type: biochemical
Details: 10^-5 M
Below, each of the compounds is paired with its reported Inhibition (%) value.
measurement.kind: Inhibition (%)

[[record]]
compound = "Cc1c(C)c(Cc2ccc(F)cc2)c(C)c(C(CCCCCC(=O)O)c2ccc(F)cc2)c1O (stereo not shown)"
assay_result = 74.5

[[record]]
compound = "CC(C)(C)c1cc(O)c(O)c(C(CCCCCC(=O)O)c2ccccc2)c1 (stereo not shown)"
assay_result = 100

[[record]]
compound = "CCCCCCC(c1ccc(F)cc1)c1c(C)c(C)cc(C)c1O (stereo not shown)"
assay_result = 100

[[record]]
compound = "Cc1cc(C)c(O)c(C(CCCCCC(=O)O)c2ccc(F)cc2)c1C (stereo not shown)"
assay_result = 92.0

[[record]]
compound = "Cc1cc(C)c(O)c(C(CCCCCCO)c2ccccc2)c1C (stereo not shown)"
assay_result = 100

[[record]]
compound = "Cc1c(C)c(Br)c(C)c(C(CCCCCC(=O)O)c2ccc(F)cc2)c1O (stereo not shown)"
assay_result = 100

[[record]]
compound = "Cc1c(C)c(C)c(C(CCCCCC(=O)O)c2ccc(F)cc2)c(O)c1C (stereo not shown)"
assay_result = 100


The reported numbers originate from patent US5162571A.
